# condition parameters: human
metric name: Hepatotoxicity (cirrhosis)
Keep it simple and answer with nothing but the number.

stdin: Please give the measured Hepatotoxicity (cirrhosis) for this compound: COc1ccc(CN2CCNCC2)c(OC)c1OC
stdout: 0

stdin: Please give the measured Hepatotoxicity (cirrhosis) for this compound: O=C1C(CC[S+]([O-])c2ccccc2)C(=O)N(c2ccccc2)N1c1ccccc1 (stereo not given)
stdout: 0

stdin: Please give the measured Hepatotoxicity (cirrhosis) for this compound: O=C(O)c1nn(Cc2ccc(Cl)cc2Cl)c2ccccc12
stdout: 0

stdin: Please give the measured Hepatotoxicity (cirrhosis) for this compound: CSCC[C@H](N)C(=O)O
stdout: 0

stdin: Please give the measured Hepatotoxicity (cirrhosis) for this compound: Cc1cccc(Nc2ccccc2C(=O)O)c1C
stdout: 0

stdin: Please give the measured Hepatotoxicity (cirrhosis) for this compound: NS(=O)(=O)c1cc2c(cc1Cl)NC(CC1CCCC1)NS2(=O)=O (stereo not given) [CYCLOPENTHIAZIDE]
stdout: 0

stdin: Please give the measured Hepatotoxicity (cirrhosis) for this compound: O=C1CC2(CCCC2)CC(=O)N1CCCCN1CCN(c2ncccn2)CC1
stdout: 0

stdin: Please give the measured Hepatotoxicity (cirrhosis) for this compound: O=C1OCCN1/N=C/c1ccc([N+](=O)[O-])o1
stdout: 0

stdin: Please give the measured Hepatotoxicity (cirrhosis) for this compound: CCN(CCCc1ccccc1)CCCc1ccccc1
stdout: 0

stdin: Please give the measured Hepatotoxicity (cirrhosis) for this compound: CCCCCN(C)CCC(O)(P(=O)(O)O)P(=O)(O)O
stdout: 0

---

Assign Hepatotoxicity (moderate) to each entry below.
# protocol description: Highest frequency of moderate liver toxicity observed during clinical trials, expressed as a percentage. [column '% BIOL' in source]
# condition parameters: human
Supply the numeric figure in %, leaving out any unit text.

stdin: Please give the measured Hepatotoxicity (moderate) for this molecule: CO/N=C(\C(=O)N[C@@H]1C(=O)N2C(C(=O)O)=C(CSc3nnnn3C)CS[C@H]12)c1csc(N)n1
stdout: 12.2

stdin: Please give the measured Hepatotoxicity (moderate) for this molecule: Cc1cn([C@H]2C[C@H](N=[N+]=[N-])[C@@H](CO)O2)c(=O)[nH]c1=O
stdout: 44

stdin: Please give the measured Hepatotoxicity (moderate) for this molecule: CC(CN(C)C)CN1c2ccccc2Sc2ccc(C#N)cc21 (stereo not drawn)
stdout: 0

stdin: Please give the measured Hepatotoxicity (moderate) for this molecule: Cc1ccc(S(=O)(=O)NC(=O)NC2CCCCC2)cc1N [METAHEXAMIDE]
stdout: 24

stdin: Please give the measured Hepatotoxicity (moderate) for this molecule: CN(C)CC/C=C1\c2ccccc2CSc2ccccc21 [DOTHIEPIN]
stdout: 4.5

stdin: Please give the measured Hepatotoxicity (moderate) for this molecule: CO[C@@]1(NC(=O)CSCC#N)C(=O)N2C(C(=O)O)=C(CSc3nnnn3C)CS[C@@H]21
stdout: 9.1

stdin: Please give the measured Hepatotoxicity (moderate) for this molecule: CC(C)c1nc(CN(C)C(=O)N[C@H](C(=O)N[C@@H](Cc2ccccc2)C[C@H](O)[C@H](Cc2ccccc2)NC(=O)OCc2cncs2)C(C)C)cs1
stdout: 44

stdin: Please give the measured Hepatotoxicity (moderate) for this molecule: COC(=O)C1=C(C)NC(C)=C(C(=O)O[C@H]2CCN(Cc3ccccc3)C2)[C@H]1c1cccc([N+](=O)[O-])c1
stdout: 6.5

---

# protocol description: Highest frequency of moderate liver toxicity observed during clinical trials, expressed as a percentage. [column '% BIOL' in source]
# condition parameters: human
Exam item: assign Y to entries whose Hepatotoxicity (moderate) is below 7% and N to entries at or above 7%. Note that a value of exactly 7% receives N.

stdin: Field: below-cutoff. Rule: recorded Hepatotoxicity (moderate) strictly less than 7%. Subject: CCOC(=O)[C@H](CCc1ccccc1)N[C@@H](C)C(=O)N(CC(=O)O)C1Cc2ccccc2C1
stdout: Y

stdin: Field: below-cutoff. Rule: recorded Hepatotoxicity (moderate) strictly less than 7%. Subject: Cc1c(-c2ccccc2)oc2c(C(=O)OCCN3CCCCC3)cccc2c1=O [FLAVOXATE]
stdout: Y

stdin: Field: below-cutoff. Rule: recorded Hepatotoxicity (moderate) strictly less than 7%. Subject: N=C(N)c1ccc(OCCCCCOc2ccc(C(=N)N)cc2)cc1
stdout: N

stdin: Field: below-cutoff. Rule: recorded Hepatotoxicity (moderate) strictly less than 7%. Subject: CC1=C(/C=C/C(C)=C/C=C/C(C)=C/C(=O)Nc2ccc(O)cc2)C(C)(C)CCC1 [FENRETINIDE]
stdout: N

---

# protocol description: Highest frequency of moderate liver toxicity observed during clinical trials, expressed as a percentage. [column '% BIOL' in source]
# condition parameters: human, Liver
Assign Hepatotoxicity (moderate) to each entry below.
Supply the numeric figure in %, leaving out any unit text.

stdin: Please give the measured Hepatotoxicity (moderate) for this compound: Nc1ccc(S(=O)(=O)Nc2ccccn2)cc1 [SULFAPYRIDINE]
stdout: 0

stdin: Please give the measured Hepatotoxicity (moderate) for this compound: CCCc1cc(=O)[nH]c(=S)[nH]1 [PROPYLTHIOURACIL]
stdout: 27.8

stdin: Please give the measured Hepatotoxicity (moderate) for this compound: Cl[C@H]1[C@H](Cl)[C@@H](Cl)[C@@H](Cl)[C@H](Cl)[C@H]1Cl [LINDANE]
stdout: 0

stdin: Please give the measured Hepatotoxicity (moderate) for this compound: CN(C)CCC(c1ccc(Cl)cc1)c1ccccn1.O=C(O)/C=C\C(=O)O (centres undefined) [CHLORPHENIRAMINE MALEATE]
stdout: 0

stdin: Please give the measured Hepatotoxicity (moderate) for this compound: N[C@@H]1[C@H]2CN(c3nc4c(cc3F)c(=O)c(C(=O)O)cn4-c3ccc(F)cc3F)C[C@@H]12 [TROVAFLOXACIN]
stdout: 2.3

stdin: Please give the measured Hepatotoxicity (moderate) for this compound: CN(C)CC[C@@H](c1ccc(Cl)cc1)c1ccccn1 [DEXCHLORPHENIRAMINE]
stdout: 0

stdin: Please give the measured Hepatotoxicity (moderate) for this compound: C1CNCCN1 [PIPERAZINE]
stdout: 0

stdin: Please give the measured Hepatotoxicity (moderate) for this compound: CN1C(C(=O)Nc2ccccn2)=C(O)c2sccc2S1(=O)=O [TENOXICAM]
stdout: 27

stdin: Please give the measured Hepatotoxicity (moderate) for this compound: CCN(CC)Cc1cc(Nc2ccnc3cc(Cl)ccc23)ccc1O.Cl
stdout: 0

stdin: Please give the measured Hepatotoxicity (moderate) for this compound: CCCCc1oc2ccccc2c1C(=O)c1cc(I)c(OCCN(CC)CC)c(I)c1 [AMIODARONE]
stdout: 55

stdin: Please give the measured Hepatotoxicity (moderate) for this compound: Nc1ccn([C@@H]2CS[C@H](CO)O2)c(=O)n1 [LAMIVUDINE]
stdout: 44

stdin: Please give the measured Hepatotoxicity (moderate) for this compound: Cc1ccc(NC(=O)c2ccc(CN3CCN(C)CC3)cc2)cc1Nc1nccc(-c2cccnc2)n1 [IMATINIB]
stdout: 100

stdin: Please give the measured Hepatotoxicity (moderate) for this compound: CSCC[C@H](N)C(=O)O [METHIONINE]
stdout: 0

stdin: Please give the measured Hepatotoxicity (moderate) for this compound: NNCCc1ccccc1 [PHENELZINE]
stdout: 0

stdin: Please give the measured Hepatotoxicity (moderate) for this compound: CCCSc1ccc2nc(NC(=O)OC)[nH]c2c1 [ALBENDAZOLE]
stdout: 100

stdin: Please give the measured Hepatotoxicity (moderate) for this compound: CSc1ccc2c(c1)N(CCC1CCCCN1C)c1ccccc1S2 (centres undefined) [THIORIDAZINE]
stdout: 0

stdin: Please give the measured Hepatotoxicity (moderate) for this compound: CCCCC1=NC2(CCCC2)C(=O)N1Cc1ccc(-c2ccccc2-c2nnn[nH]2)cc1 [IRBESARTAN]
stdout: 4.3

stdin: Please give the measured Hepatotoxicity (moderate) for this compound: C=C[C@H]1C[N@@]2CC[C@H]1C[C@H]2[C@H](O)c1ccnc2ccc(OC)cc12 [QUININE]
stdout: 15.4

stdin: Please give the measured Hepatotoxicity (moderate) for this compound: Nc1ccc(S(=O)(=O)c2ccc(N)cc2)cc1 [DAPSONE]
stdout: 20

stdin: Please give the measured Hepatotoxicity (moderate) for this compound: O=P1(N(CCCl)CCCl)NCCCO1 (centres undefined) [CYCLOPHOSPHAMIDE ANHYDROUS]
stdout: 85

stdin: Please give the measured Hepatotoxicity (moderate) for this compound: Cc1c(C)c2c(c(C)c1O)CC[C@@](C)(CCC[C@H](C)CCC[C@H](C)CCCC(C)C)O2 [ALPHA-TOCOPHEROL]
stdout: 0

stdin: Please give the measured Hepatotoxicity (moderate) for this compound: COc1cc(Cc2cnc(N)nc2N)cc(OC)c1OC [TRIMETHOPRIM]
stdout: 5.9

stdin: Please give the measured Hepatotoxicity (moderate) for this compound: CC1=C(/C=C/C(C)=C/C=C/C(C)=C/CO)C(C)(C)CCC1 [RETINOL]
stdout: 33

stdin: Please give the measured Hepatotoxicity (moderate) for this compound: Clc1cccc(Cl)c1N=C1NCCN1 [CLONIDINE]
stdout: 12.5

stdin: Please give the measured Hepatotoxicity (moderate) for this compound: Sc1ncnc2nc[nH]c12 [MERCAPTOPURINE ANHYDROUS]
stdout: 53

stdin: Please give the measured Hepatotoxicity (moderate) for this compound: Cc1noc(NS(=O)(=O)c2ccc(N)cc2)c1C [SULFISOXAZOLE]
stdout: 0

stdin: Please give the measured Hepatotoxicity (moderate) for this compound: NCCCC(O)(P(=O)(O)O)P(=O)(O)O [ALENDRONIC ACID]
stdout: 1.6

stdin: Please give the measured Hepatotoxicity (moderate) for this compound: CC1Cc2ccccc2N1NC(=O)c1ccc(Cl)c(S(N)(=O)=O)c1 (centres undefined) [INDAPAMIDE]
stdout: 0

stdin: Please give the measured Hepatotoxicity (moderate) for this compound: CCn1cc(C(=O)O)c(=O)c2cc(F)c(N3CCN(C)CC3)cc21 [PEFLOXACIN]
stdout: 16.7

stdin: Please give the measured Hepatotoxicity (moderate) for this compound: O=C1CC[C@@]2(O)[C@H]3Cc4ccc(O)c5c4[C@@]2(CCN3CC2CC2)[C@H]1O5 [NALTREXONE]
stdout: 20

stdin: Please give the measured Hepatotoxicity (moderate) for this compound: CC1(C)S[C@@H]2[C@H](NC(=O)[C@H](NC(=O)N3CCN(S(C)(=O)=O)C3=O)c3ccccc3)C(=O)N2[C@H]1C(=O)O [MEZLOCILLIN]
stdout: 25

stdin: Please give the measured Hepatotoxicity (moderate) for this compound: O=C1C(CC[S+]([O-])c2ccccc2)C(=O)N(c2ccccc2)N1c1ccccc1 (centres undefined) [SULFINPYRAZONE]
stdout: 0

stdin: Please give the measured Hepatotoxicity (moderate) for this compound: CN(C)CCCn1c2c(c3ccccc31)CCCCCC2 [IPRINDOLE]
stdout: 0

stdin: Please give the measured Hepatotoxicity (moderate) for this compound: CCCCNC(=N)NC(=N)N [BUFORMIN]
stdout: 0

stdin: Please give the measured Hepatotoxicity (moderate) for this compound: Nc1ccn([C@@H]2O[C@H](CO)[C@@H](O)[C@@H]2O)c(=O)n1 [CYTARABINE]
stdout: 75

stdin: Please give the measured Hepatotoxicity (moderate) for this compound: O=C1NC(=O)C(c2ccccc2)(c2ccccc2)N1 [PHENYTOIN]
stdout: 90

stdin: Please give the measured Hepatotoxicity (moderate) for this compound: C[C@H](CS)C(=O)N1CCC[C@H]1C(=O)O [CAPTOPRIL]
stdout: 4

stdin: Please give the measured Hepatotoxicity (moderate) for this compound: CNCCCC12CCC(c3ccccc31)c1ccccc12 [MAPROTILINE]
stdout: 25

stdin: Please give the measured Hepatotoxicity (moderate) for this compound: NC(=O)N1c2ccccc2C=Cc2ccccc21 [CARBAMAZEPINE]
stdout: 23.8
